experimentNotes: NCI Yeast Anticancer Drug Screen. Data for the wt1 strain (AID 149);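 further: 0% = growth of vehicle-treated wt1 cultures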
runConditions: S. cerevisiae wt1 strain (SPY 50644) growth inhibition; at 1.2 µM; hits give high values
This is part of a sample that, as a whole, favours compounds with a hit. Of some 79,000 tested, about 15% had one in any assay.
assayMetric: growth inhibition (%)

In [3]: df
Out[3]:
                                    molecule        assaymetric  measurementunit  testresult
 0  O=C(Nc1cccc(C(F)(F)F)c1)Oc1ccc(Cl)cc1C(=O)c1ccccc1  growth inhibition                %          18
 1  CCC(NC(C)c1ccccc1)C(=O)c1ccc(OCc2ccccc2)c(OCc2ccccc2)c1 (centres undefined)  growth inhibition                %          22
 2                  O=NN(CCCl)C(=O)NC1CCCCC1  growth inhibition                %          -2
 3  CN(NC(=O)/C(=C/c1ccc(O)cc1)NC(=O)c1ccccc1)c1ccnc2cc(Cl)ccc12  growth inhibition                %           3
 4  CNc1nc(C)nc2c1cnn2-c1ccc([N+](=O)[O-])cc1  growth inhibition                %           3
 5                Cc1nc2c(ncn2CCO)c(=O)[nH]1  growth inhibition                %         -36
 6  CCCCC(CC)C(=O)Oc1ccc(C(=O)c2ccccc2)c(O)c1 (centres undefined)  growth inhibition                %         -13
 7      COc1cc(N(C)C)ccc1/C=C\c1ccnc2ccccc12  growth inhibition                %          -5
 8  COc1ccc2oc(-c3ccc(Cl)cc3)c(N3CCN(C)CC3)c2c1  growth inhibition                %          -1
 9            Cc1ccc2occ/c(=N\Nc3ccccc3)c2c1  growth inhibition                %           2
10  OC(CN1CCCCC1)c1cc(Cl)c(Cl)c(Cl)c1 (centres undefined)  growth inhibition                %           4
11  CCc1nc(N)nc(N)c1-c1ccc(NCCCCCCN)c([N+](=O)[O-])c1  growth inhibition                %          -1
12        COC(=O)c1oc([N+](=O)[O-])c(Cl)c1Cl  growth inhibition                %          26
13  N#C/C(=C1C=C(Br)/C(=N\O)C=C\1Cl)c1cccc2ccccc12  growth inhibition                %          -1
14             CCN(CC)N=Nc1c(C(N)=O)n[nH]c1C  growth inhibition                %          -6
15       N#CSC1CCCCNC1=O (centres undefined)  growth inhibition                %          -3
16  Cc1ccc(S(=O)(=O)Nc2ccc3c(c2)C(O)c2ccccc2-3)cc1 (centres undefined)  growth inhibition                %          -3
17          Nc1ccc(CCl)cc1Cc1c(O)ccc2ccccc12  growth inhibition                %          -1
18              O=C1CSC(=S)N1Cc1ccc(Cl)cc1Cl  growth inhibition                %           1
